Each recorded value in this set is attributed to patent US20220098319A1.

Assign MAX MFI to each entry below.
Biological target: T1, cynomolgus monkey CD73 (on transfected CHOK1 cells) (cynomolgus monkey, UniProt A0A2K5V5U7 27-549)
T1 construct: whole, on cells; also called CHOK1-cCD73; CHOK1-CCD73
T1 sequence: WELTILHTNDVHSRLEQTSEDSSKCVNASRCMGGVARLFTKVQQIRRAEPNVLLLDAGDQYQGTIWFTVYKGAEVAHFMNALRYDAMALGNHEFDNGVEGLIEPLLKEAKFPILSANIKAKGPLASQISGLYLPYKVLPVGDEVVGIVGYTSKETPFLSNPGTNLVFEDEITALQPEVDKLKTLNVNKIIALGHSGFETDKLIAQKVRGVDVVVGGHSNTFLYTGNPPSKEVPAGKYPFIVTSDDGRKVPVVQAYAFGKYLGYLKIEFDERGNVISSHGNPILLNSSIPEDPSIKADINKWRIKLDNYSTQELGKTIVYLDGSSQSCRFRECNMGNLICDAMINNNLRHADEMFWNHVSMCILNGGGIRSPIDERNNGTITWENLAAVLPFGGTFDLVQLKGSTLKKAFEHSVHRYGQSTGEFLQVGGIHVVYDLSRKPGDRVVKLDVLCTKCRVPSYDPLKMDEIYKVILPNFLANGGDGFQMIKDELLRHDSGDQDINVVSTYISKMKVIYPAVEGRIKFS
Test: FACS on CHOK1-cCD73 cells
Give bare numbers, in MFI.

binder	assay_metric	unit_of_measure	meas_value
mAb036 (clone 66H6C12), murine anti-CD73 antibody (antibody, V domains shown, Purified from hybridoma supernatant) VH: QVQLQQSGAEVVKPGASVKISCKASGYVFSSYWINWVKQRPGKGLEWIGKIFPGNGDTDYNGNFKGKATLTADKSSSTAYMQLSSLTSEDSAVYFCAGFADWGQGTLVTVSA VL: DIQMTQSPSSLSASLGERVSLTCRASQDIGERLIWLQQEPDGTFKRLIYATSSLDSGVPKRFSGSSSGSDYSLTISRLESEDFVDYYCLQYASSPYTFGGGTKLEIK	MAX MFI	MFI	7490

Incoming: Please give the measured MAX MFI for this binder: mAb044 (clone 80H7D6), murine anti-CD73 antibody (antibody, V domains shown, Purified from hybridoma supernatant) VH: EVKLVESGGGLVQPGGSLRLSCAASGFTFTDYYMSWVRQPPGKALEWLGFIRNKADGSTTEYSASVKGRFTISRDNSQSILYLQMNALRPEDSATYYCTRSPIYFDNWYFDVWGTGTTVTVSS VL: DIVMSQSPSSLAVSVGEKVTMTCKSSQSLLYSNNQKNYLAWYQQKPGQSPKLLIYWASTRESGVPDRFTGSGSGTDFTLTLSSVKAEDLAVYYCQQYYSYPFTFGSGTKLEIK
Outgoing: 12300
